biological target: recombinant human NK3 receptor (Homo sapiens, UniProt P29371); construct: expressed in transfected cells; host or cells: HEK293 cells, transient expression; membrane preparation; assay: [3H]SR142801 competition binding assay; conditions: [3H]SR142801, membranes of HEK293 cells transiently expressing recombinant human NK3 receptor; read-out: hNK3 Ki
Sequence (P29371 whole entry): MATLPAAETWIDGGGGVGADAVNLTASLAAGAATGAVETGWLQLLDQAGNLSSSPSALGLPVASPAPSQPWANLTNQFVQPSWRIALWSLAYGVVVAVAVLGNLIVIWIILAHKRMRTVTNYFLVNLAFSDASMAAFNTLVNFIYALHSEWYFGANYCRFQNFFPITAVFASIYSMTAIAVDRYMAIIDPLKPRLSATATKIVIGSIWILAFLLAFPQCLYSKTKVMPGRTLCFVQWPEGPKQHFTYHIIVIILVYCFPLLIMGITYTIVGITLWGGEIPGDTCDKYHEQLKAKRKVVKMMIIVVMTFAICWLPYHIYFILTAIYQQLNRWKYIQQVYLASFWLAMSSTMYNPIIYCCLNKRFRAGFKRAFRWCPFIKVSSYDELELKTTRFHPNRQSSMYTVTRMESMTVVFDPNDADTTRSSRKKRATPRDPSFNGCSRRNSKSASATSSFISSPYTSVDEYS
pKi: −log10 of the molar value.
Rule: TRUE for pKi not less than 7, FALSE for anything less.

- Compound: "COCCN(C(C)=O)C1CCN(CCC(C)(C(=O)N[C@@H](CO)c2ccc(Cl)cc2)c2ccc(Cl)c(Cl)c2)CC1 (stereo in doubt)"
  Target under test: "recombinant human NK3 receptor (Homo sapiens, UniProt P29371)"
  Class: "FALSE"
- Compound: "CC(CCN1CCC(NS(C)(=O)=O)CC1)(C(=O)NCc1cc(F)ccc1C(F)(F)F)c1ccc(Cl)c(Cl)c1 (stereo not shown)"
  Target under test: "recombinant human NK3 receptor (Homo sapiens, UniProt P29371)"
  Class: "FALSE"
- Compound: "CN(Cc1ccc(C(F)(F)F)cc1)C(=O)C(C)(CCN1CCC(NS(C)(=O)=O)CC1)c1ccc(Cl)c(Cl)c1 (stereo not shown)"
  Target under test: "recombinant human NK3 receptor (Homo sapiens, UniProt P29371)"
  Class: "TRUE"
- Compound: "CCN(C1CCN(CCC(C)(C(=O)NCc2ccc(Cl)c(Cl)c2)c2ccc(Cl)c(Cl)c2)CC1)S(C)(=O)=O (stereo not shown)"
  Target under test: "recombinant human NK3 receptor (Homo sapiens, UniProt P29371)"
  Class: "TRUE"
- Compound: "CN(Cc1ccc(Cl)cc1)C(=O)C(CCN1CCC(N2CCCC2=O)CC1)c1ccc(Cl)nc1 (stereo not shown)"
  Target under test: "recombinant human NK3 receptor (Homo sapiens, UniProt P29371)"
  Class: "FALSE"
- Compound: "CN(Cc1cccc(Cl)c1)C(=O)C(F)(CCN1CCC(NS(C)(=O)=O)CC1)c1ccc(Cl)c(Cl)c1 (stereo not shown)"
  Target under test: "recombinant human NK3 receptor (Homo sapiens, UniProt P29371)"
  Class: "FALSE"
- Compound: "CC(=O)N(C1CC1)C1CCN(CCC(C)(C(=O)N[C@@H](CO)c2ccc(Cl)cc2)c2ccc(Cl)c(Cl)c2)CC1 (single isomer, unassigned; diastereoisomer 1) [Example 142]"
  Target under test: "recombinant human NK3 receptor (Homo sapiens, UniProt P29371)"
  Class: "TRUE"
- Compound: "CC(=O)NC1CCN(CCC(C)(C(=O)N[C@@H](CO)c2ccc(Cl)c(Cl)c2)c2ccc(Cl)c(Cl)c2)CC1 (single isomer, unassigned; diastereoisomer 1)"
  Target under test: "recombinant human NK3 receptor (Homo sapiens, UniProt P29371)"
  Class: "TRUE"
- Compound: "CC(CCN1CCC(N2CCCC2=O)CC1)(C(=O)N[C@@H](CO)c1ccc(Cl)c(Cl)c1)c1ccc(Cl)c(Cl)c1 (single isomer, unassigned; diastereoisomer 1)"
  Target under test: "recombinant human NK3 receptor (Homo sapiens, UniProt P29371)"
  Class: "TRUE"
- Compound: "CN(Cc1cccc(Cl)c1)C(=O)C(C)(CCN1CCC(NS(C)(=O)=O)CC1)c1ccc(Cl)c(Cl)c1 (stereo not shown)"
  Target under test: "recombinant human NK3 receptor (Homo sapiens, UniProt P29371)"
  Class: "TRUE"
- Compound: "CC[C@H](NC(=O)C(C)(CCN1CCC(N(CC)C(C)=O)CC1)c1ccc(Cl)c(Cl)c1)c1ccccc1 (stereo partly shown)"
  Target under test: "recombinant human NK3 receptor (Homo sapiens, UniProt P29371)"
  Class: "TRUE"
- Compound: "COc1cc(CN(C)C(=O)C(C)(CCN2CCC(NS(C)(=O)=O)CC2)c2ccc(Cl)c(Cl)c2)ccc1OC(F)F (stereo not shown)"
  Target under test: "recombinant human NK3 receptor (Homo sapiens, UniProt P29371)"
  Class: "FALSE"
